Assay Method Text: Phase 1 study, MAD cohorts: plasma pharmacokinetics
Format: in vivo, human
Conditions: both sexes, human, plasma, oral, 12 mg, healthy subjects, MAD Day 14, 12 mg, fed; mean
Experimental Readout: AUC (ng·h/mL)
Note: unit ng·h/mL is implicit; provide only the numeric part.

[Q] Fill in: AUC of N#Cc1cccc(C#N)c1-c1c(-c2cccc(-c3ccc(C(=O)NCC(=O)O)cc3Cl)c2)n(S(=O)(=O)c2ccc(C(F)F)cc2)c2ccc(F)cc12 is ___
[A] 14.6

* * *

Assay Method Text: Phase 1 study, MAD cohorts: plasma pharmacokinetics
Format: in vivo, human
Conditions: both sexes, human, plasma, oral, 6 mg, healthy subjects, MAD Day 14, 6 mg, fed; mean; read-out: Cmax
Experimental Readout: Cmax (ng/mL)
Note: unit ng/mL is implicit; provide only the numeric part.

[Q] Fill in: Cmax of N#Cc1cccc(C#N)c1-c1c(-c2cccc(-c3ccc(C(=O)NCC(=O)O)cc3Cl)c2)n(S(=O)(=O)c2ccc(C(F)F)cc2)c2ccc(F)cc12 is ___
[A] 2.16

Cited source: patent US20260083704A1
